# credit: ChEMBL document CHEMBL2010662

SYSTEM_UNDER_TEST: UniProt:P33261
Sequence (P33261 whole entry): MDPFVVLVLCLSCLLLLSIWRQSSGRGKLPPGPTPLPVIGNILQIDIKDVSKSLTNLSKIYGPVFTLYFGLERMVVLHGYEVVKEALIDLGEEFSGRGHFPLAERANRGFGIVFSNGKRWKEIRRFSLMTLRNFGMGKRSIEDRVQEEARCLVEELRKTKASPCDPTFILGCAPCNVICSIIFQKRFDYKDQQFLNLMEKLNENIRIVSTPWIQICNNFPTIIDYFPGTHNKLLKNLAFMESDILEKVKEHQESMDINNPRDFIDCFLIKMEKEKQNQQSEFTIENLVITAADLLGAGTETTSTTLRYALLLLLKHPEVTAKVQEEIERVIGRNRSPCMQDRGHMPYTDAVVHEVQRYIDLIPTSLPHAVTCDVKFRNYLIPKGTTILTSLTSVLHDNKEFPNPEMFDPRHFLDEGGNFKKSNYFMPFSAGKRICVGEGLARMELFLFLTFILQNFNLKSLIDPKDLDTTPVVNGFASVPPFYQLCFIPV
pIC50: −log10 of the molar value.
PARAMETER: pIC50

Give the observed pIC50 of COc1ccc(-c2nc(C(=O)NCc3ccc(F)cc3F)c([C@H](C)N)o2)c2ccc(C(F)(F)F)nc12 for UniProt:P33261.
< 5.10

----------
Record type: IC50 measurement. Applies to: 3',5'-cyclic-AMP phosphodiesterase 4B (Homo sapiens)
Lab book: enter the figure in nM, no units written.

Give the observed IC50 of COc1ccc(-c2nc(C(=O)NCc3ccccc3F)c(CN)o2)c2ccc(C(F)(F)F)nc12 for 3',5'-cyclic-AMP phosphodiesterase 4B (Homo sapiens).
0.9

New cases:
Give the observed IC50 of CC[C@H](N)c1oc(-c2ccc(OC)c3nc(C(F)(F)F)ccc23)nc1C(=O)NCc1ccc(Cl)cc1 for 3',5'-cyclic-AMP phosphodiesterase 4B (Homo sapiens).
0.81

Give the observed IC50 of COc1ccc(-c2nc(C(=O)NCc3c(F)cccc3Cl)c(CN)o2)c2ccc(C(F)(F)F)nc12 for 3',5'-cyclic-AMP phosphodiesterase 4B (Homo sapiens).
0.1

Give the observed IC50 of COc1ccc(-c2nc(C(=O)NCc3ccc(Cl)cc3Cl)c(CN)o2)c2ccc(C(F)(F)F)nc12 for 3',5'-cyclic-AMP phosphodiesterase 4B (Homo sapiens).
4.3

Give the observed IC50 of COc1ccc(-c2nc(C(=O)NCc3ccc(F)cc3)c(CN)o2)c2ccc(C(F)(F)F)nc12 for 3',5'-cyclic-AMP phosphodiesterase 4B (Homo sapiens).
4.1

Give the observed IC50 of COc1ccc(-c2nc(C(=O)NCc3ccc(F)c(F)c3)c(CN)o2)c2ccc(C(F)(F)F)nc12 for 3',5'-cyclic-AMP phosphodiesterase 4B (Homo sapiens).
2.6

Give the observed IC50 of COc1ccc(-c2nc(C(=O)NCc3ccc(Cl)cc3)c([C@@H](N)CO)o2)c2ccc(C(F)(F)F)nc12 for 3',5'-cyclic-AMP phosphodiesterase 4B (Homo sapiens).
12.7

Give the observed IC50 of COc1ccc(-c2nc(C(=O)NCc3c(F)cccc3F)c([C@H](C)N)o2)c2ccc(C(F)(F)F)nc12 for 3',5'-cyclic-AMP phosphodiesterase 4B (Homo sapiens).
0.05

----------
SYSTEM_UNDER_TEST: Cytochrome P450 2D6 (Homo sapiens)
Sequence (P10635 whole entry): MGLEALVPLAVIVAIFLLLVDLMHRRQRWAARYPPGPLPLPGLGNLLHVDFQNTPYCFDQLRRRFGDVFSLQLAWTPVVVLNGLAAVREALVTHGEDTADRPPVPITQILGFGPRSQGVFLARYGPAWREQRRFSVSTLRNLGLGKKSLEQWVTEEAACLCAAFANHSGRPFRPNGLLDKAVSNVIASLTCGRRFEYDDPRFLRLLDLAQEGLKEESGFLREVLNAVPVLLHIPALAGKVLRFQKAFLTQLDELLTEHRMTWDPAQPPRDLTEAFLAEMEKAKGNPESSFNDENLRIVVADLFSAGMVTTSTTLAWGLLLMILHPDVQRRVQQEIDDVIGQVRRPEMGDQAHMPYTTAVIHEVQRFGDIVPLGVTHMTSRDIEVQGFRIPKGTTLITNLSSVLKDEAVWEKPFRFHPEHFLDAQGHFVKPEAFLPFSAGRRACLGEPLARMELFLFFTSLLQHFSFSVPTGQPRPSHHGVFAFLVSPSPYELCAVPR
PARAMETER: IC50

Quote IC50 reported for COc1ccc(-c2nc(C(=O)NCc3ccc(F)cc3F)c([C@H](C)N)o2)c2ccc(C(F)(F)F)nc12 please.
> 8 µM

----------
SYSTEM_UNDER_TEST: Cytochrome P450 2C9 (Homo sapiens, UniProt P11712)
Sequence (P11712 whole entry): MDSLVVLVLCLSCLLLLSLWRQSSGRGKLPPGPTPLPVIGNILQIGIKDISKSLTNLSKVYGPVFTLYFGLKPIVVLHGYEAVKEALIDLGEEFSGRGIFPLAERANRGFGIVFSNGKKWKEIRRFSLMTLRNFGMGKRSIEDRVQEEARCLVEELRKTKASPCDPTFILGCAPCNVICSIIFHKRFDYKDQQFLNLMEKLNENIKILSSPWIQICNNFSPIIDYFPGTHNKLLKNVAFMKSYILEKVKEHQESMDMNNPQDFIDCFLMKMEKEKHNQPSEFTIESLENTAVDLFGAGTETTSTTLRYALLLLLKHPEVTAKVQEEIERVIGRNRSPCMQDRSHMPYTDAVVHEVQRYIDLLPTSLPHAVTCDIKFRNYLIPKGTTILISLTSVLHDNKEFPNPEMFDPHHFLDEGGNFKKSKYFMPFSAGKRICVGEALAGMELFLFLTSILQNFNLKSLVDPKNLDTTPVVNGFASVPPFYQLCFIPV
PARAMETER: IC50

Give the observed IC50 of COc1ccc(-c2nc(C(=O)NCc3ccc(F)cc3F)c([C@H](C)N)o2)c2ccc(C(F)(F)F)nc12 for Cytochrome P450 2C9 (Homo sapiens, UniProt P11712).
> 8 µM
